Assay: Stability of CNP variants by RP-HPLC, 10 days in PBS
Format: physicochemical
Details: T10 (10 days) in PBS, pH 7.4, at 37° C.
This section presents sequences with their documented T10, % (% variant detected at T10) values.

| seqText | T10, % (% variant detected at T10) [%] |
| --- | --- |
| PGQEHPNARRYRGANRRGLSRGCFGLKLDRIGSMSGLGC [CNP-6] | 58 |
| PGQEHPQARRYRGAQRRGLSRGCFGLKLDRIGSMSGLGC [CNP-9] | 77 |
| PGQEHPQARRYRGAQRRGLSRGCFGLKLDRIGSMSGLGC [CNP-8] | 88 |
| PGQEHPNARKYKGANKKGLSKGCFGLKLDRIGSMSGLGC [CNP-5] | 47 |
| PGQEHPNARRYRGANRRGLSRGCFGLKLDRIGSMSGLGC [CNP-7] | 53 |
